Parameter: pIC50
# reply with the number alone; pIC50 is -log10 of concentration in mol/L

(Q) Query for sucrase (Oryctolagus cuniculus): what pIC50 does the record show for C=CCN1C[C@H](O)[C@@H](O)[C@H](O[C@H]2O[C@H](CO)[C@@H](O)[C@H](O)[C@H]2O)[C@H]1CO [Example 13] ?
(A) 4.20

(Q) Query for sucrase (Oryctolagus cuniculus): what pIC50 does the record show for OC[C@@H]1[C@@H](O[C@H]2O[C@H](CO)[C@@H](O)[C@H](O)[C@H]2O)[C@H](O)[C@@H](O)CN1Cc1ccc(Br)cc1 [Example 4] ?
(A) 4.69

(Q) Query for sucrase (Oryctolagus cuniculus): what pIC50 does the record show for OC[C@@H]1[C@@H](O[C@H]2O[C@H](CO)[C@@H](O)[C@H](O)[C@H]2O)[C@H](O)[C@@H](O)CN1CCc1ccccc1 [Example 6] ?
(A) 4.14

(Q) Query for sucrase (Oryctolagus cuniculus): what pIC50 does the record show for OC[C@@H]1[C@@H](O[C@H]2O[C@H](CO)[C@@H](O)[C@H](O)[C@H]2O)[C@H](O)[C@@H](O)CN1CCCCOc1ccccc1 [Example 14] ?
(A) 4.84

(Q) Query for sucrase (Oryctolagus cuniculus): what pIC50 does the record show for CC(C)=CCN1C[C@H](O)[C@@H](O)[C@H](O[C@H]2O[C@H](CO)[C@@H](O)[C@H](O)[C@H]2O)[C@H]1CO [Example 3] ?
(A) 4.36

(Q) Query for sucrase (Oryctolagus cuniculus): what pIC50 does the record show for Cc1ccc(CN2C[C@H](O)[C@@H](O)[C@H](O[C@H]3O[C@H](CO)[C@@H](O)[C@H](O)[C@H]3O)[C@H]2CO)cc1 [Example 25] ?
(A) 4.49

(Q) Query for sucrase (Oryctolagus cuniculus): what pIC50 does the record show for OC[C@@H]1[C@@H](O[C@H]2O[C@H](CO)[C@@H](O)[C@H](O)[C@H]2O)[C@H](O)[C@@H](O)CN1CC=Cc1ccccc1 [Example 20] ?
(A) 4.66

====

# System: increase in blood glucose level
# Assay comment: inhibitory action against increase in blood glucose level in rats (oral sucrose load)
# Format: in vivo, SD-Strain rats
# Test context: per os, 1 ml/100 g of sucrose solution (2 g/10 ml) containing 30 mg test compound, 180 minutes after administration
Parameter: Inhibitory Rate (%) for increase in ΔAUC of blood glucose
Report the value in % with no unit label.

(Q) What Inhibitory Rate (%) for increase in ΔAUC of blood glucose value was documented for this compound, O=C(O)c1ccc(CN2C[C@H](O)[C@@H](O)[C@H](O[C@H]3O[C@H](CO)[C@@H](O)[C@H](O)[C@H]3O)[C@H]2CO)cc1 ?
(A) 46.6

(Q) What Inhibitory Rate (%) for increase in ΔAUC of blood glucose value was documented for this compound, COC(=O)CCCCN1C[C@H](O)[C@@H](O)[C@H](O[C@H]2O[C@H](CO)[C@@H](O)[C@H](O)[C@H]2O)[C@H]1CO ?
(A) 47.9

(Q) What Inhibitory Rate (%) for increase in ΔAUC of blood glucose value was documented for this compound, OC[C@@H]1[C@@H](O[C@H]2O[C@H](CO)[C@@H](O)[C@H](O)[C@H]2O)[C@H](O)[C@@H](O)CN1CC(O)COc1ccccc1 (stereo partly drawn) [Example 22, p-toluenesulfonate hydrate] ?
(A) 48.4
